satisfied means recorded melting point is 200 °C or above; not satisfied means it is below 200 °C.

Say whether O=C1Nc2ccc(F)cc2C(CCc2ccccc2)(C(F)(F)F)N1 (racemic) shows melting point of 200 °C or more.
not satisfied

In plain terms: is recorded melting point at least 200 °C for O=C1Nc2ccc(F)cc2C(C#CC2CC2)(C(F)(F)F)N1 (racemic) ?
not satisfied

Hi team, for CC(C)CCC1(C(F)(F)F)NC(=O)Nc2ccc(F)cc21 (racemic) , is the recorded melting point at or above 200 °C?
not satisfied

Quick check: does COc1ccc2c(c1)C(C#CC1CC1)(C(F)(F)F)NC(=O)N2 (racemic) have melting point greater than or equal to 200 °C?
satisfied

// provenance: patent US6423718B1
